Readout: melting point

INSERT INTO measurements (molecule, readout, experimental_value) VALUES
  ('COc1ccc(C(=O)c2c(F)cccc2F)cc1CC(=O)O', 'melting point', '187 °C'),
  ('Cc1ccc(N2C(=O)C(O)=C(C(=O)c3ccc(C(C)C)cc3)C2c2ccc(OC3CC3)cc2)nn1 (stereo not given)', 'melting point', '285 to 288 °C'),
  ('CCOc1ccc(C2=NN(c3ccc(C4=NNC(=O)CC4C)cc3)C(=O)C3CC=CCC23)cc1OCC (stereo not given)', 'melting point', '164 to 165 °C'),
  ('CCOC(=O)c1c(C#N)c2c(c3[nH]c4ccccc4c13)CCC2', 'melting point', '229 to 231 °C'),
  ('CNC(=O)N(O)CCNC(=O)c1cccc(Oc2ccc(Cl)cc2)c1', 'melting point', '157 to 158 °C'),
  ('CC(C)(C)NNC(=O)c1ccccc1', 'melting point', '94 to 95 °C'),
  ('COc1ccc(C(CC(=O)O)CC(=O)O)cc1', 'melting point', '147 to 150 °C'),
  ('CN(C)CCCN=C1CC(c2ccc(Cl)c(Cl)c2)Cc2c1c(=O)c1cc(Cl)ccc1n2O (stereo not given)', 'melting point', '208 to 210 °C'),
  ('O=c1cc(CCN2CCC(c3c[nH]c4ccccc34)CC2)c2ccccc2[nH]1', 'melting point', '259 to 260 °C'),
  ('CN1C(=O)C(C#N)(c2ccc(OCC(O)CNC(C)(C)C)cc2)Sc2ccccc21 (stereo not given)', 'melting point', '160 °C'),
  ('COc1ccc(C(=O)CC2CCCCCCC2=O)cc1 (stereo not given)', 'melting point', '54 to 56 °C'),
  ('COc1ccc(CCl)cc1OC', 'melting point', '50 to 51 °C'),
  ('CCCCOc1ccc(S(=O)(=O)C2(C(=O)NO)CCN(Cc3cccc(OC)c3)CC2)cc1', 'melting point', '137 °C'),
  ('CCCCCCCCCCOC(=O)OC(C)OC1=C(C(=O)Nc2ccccn2)N(C)S(=O)(=O)c2ccccc21 (stereo not given)', 'melting point', '84 to 86 °C'),
  ('CCOCc1nc2c(N)nc(C)c(C)c2n1NCc1ccccc1', 'melting point', '149 to 151 °C'),
  ('N#CC1CCN(CCc2ccc(F)cc2)CC1', 'melting point', '47 to 48 °C'),
  ('Cc1cc(Br)cnc1CCCCN', 'melting point', '35 to 37 °C'),
  ('O=C1NCc2c(Oc3ccccc3)cccc2N1c1ccccc1', 'melting point', '225 to 227 °C'),
  ('ClCSc1nc(Cl)c(Cl)nc1Cl', 'melting point', '68 to 70 °C'),
  ('C(=Cc1ncon1)c1ccccc1', 'melting point', '82 °C');
